Value source: paper PMC7488488

target: MDM2 (Homo sapiens)

[
  {
    "compound": "CCOC(=O)[C@H]1Cc2c(cc([N+](=O)[O-])cc2[N+](=O)[O-])[C@H](O)[C@]12C(=O)Nc1ccc(Br)cc12 [4g′]",
    "readout_unit": "nM",
    "IC50": 2500
  },
  {
    "compound": "CCOC(=O)[C@H]1Cc2c(cc([N+](=O)[O-])cc2[N+](=O)[O-])[C@@H](O)[C@@]12C(=O)Nc1ccc(Cl)cc12 [4d]",
    "readout_unit": "nM",
    "IC50": 520
  },
  {
    "compound": "CCOC(=O)[C@H]1Cc2c(cc([N+](=O)[O-])cc2[N+](=O)[O-])[C@@H](O)[C@@]12C(=O)Nc1ccc(Br)cc12 [4g]",
    "readout_unit": "nM",
    "IC50": 280
  },
  {
    "compound": "CCOC(=O)[C@H]1Cc2c(cc([N+](=O)[O-])cc2[N+](=O)[O-])[C@H](O)[C@]12C(=O)Nc1ccc(Cl)cc12 [4d′]",
    "readout_unit": "nM",
    "IC50": 1800
  }
]

###

target: MDM2 (Homo sapiens, UniProt Q00987)
Sequence (Q00987 whole entry): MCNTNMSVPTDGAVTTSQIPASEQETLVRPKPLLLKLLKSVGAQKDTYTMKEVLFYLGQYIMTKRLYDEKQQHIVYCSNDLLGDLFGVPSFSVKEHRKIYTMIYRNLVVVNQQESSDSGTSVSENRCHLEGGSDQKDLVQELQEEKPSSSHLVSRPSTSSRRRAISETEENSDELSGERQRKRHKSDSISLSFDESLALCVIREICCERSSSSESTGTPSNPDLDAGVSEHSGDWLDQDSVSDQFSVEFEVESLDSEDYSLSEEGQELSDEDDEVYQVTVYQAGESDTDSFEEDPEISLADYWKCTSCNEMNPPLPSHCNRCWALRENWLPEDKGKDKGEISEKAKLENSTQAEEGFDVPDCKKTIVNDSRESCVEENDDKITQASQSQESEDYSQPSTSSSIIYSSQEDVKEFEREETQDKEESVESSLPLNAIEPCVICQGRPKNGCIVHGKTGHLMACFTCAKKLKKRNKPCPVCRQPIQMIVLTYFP
procedure_text: TR-FRET
Format: binding
measurement_setup: read-out: Inhibition rate at 1.0 μmol/L, MDM2

[
  {
    "compound_structure_string": "O=C(c1ccc(Cl)c(Cl)c1)[C@H]1Cc2c(cc([N+](=O)[O-])cc2[N+](=O)[O-])[C@H](O)[C@]12C(=O)Nc1ccccc12",
    "inhibition at 1 µM (%)": 36.3
  },
  {
    "compound_structure_string": "CCOC(=O)[C@H]1Cc2c(cc([N+](=O)[O-])cc2[N+](=O)[O-])[C@H](O)[C@]12C(=O)Nc1ccc(F)cc12",
    "inhibition at 1 µM (%)": 55.6
  },
  {
    "compound_structure_string": "O=C(c1ccccc1F)[C@H]1Cc2c(cc([N+](=O)[O-])cc2[N+](=O)[O-])[C@@H](O)[C@@]12C(=O)Nc1ccccc12",
    "inhibition at 1 µM (%)": 47.2
  },
  {
    "compound_structure_string": "CCOC(=O)[C@H]1Cc2c(cc([N+](=O)[O-])cc2[N+](=O)[O-])[C@H](O)[C@]12C(=O)Nc1cccc(Br)c12",
    "inhibition at 1 µM (%)": 54.8
  },
  {
    "compound_structure_string": "O=C(c1ccccc1)[C@H]1Cc2c(cc([N+](=O)[O-])cc2[N+](=O)[O-])[C@@H](O)[C@@]12C(=O)Nc1ccccc12",
    "inhibition at 1 µM (%)": 46.4
  },
  {
    "compound_structure_string": "O=C(c1ccccc1F)[C@H]1Cc2c(cc([N+](=O)[O-])cc2[N+](=O)[O-])[C@H](O)[C@]12C(=O)Nc1ccccc12",
    "inhibition at 1 µM (%)": 31.6
  }
]

###

System: T98G cells
procedure_text: MTT cell proliferation assay
Assay type: cell-based
measurement_setup: read-out: Anti-proliferative activity IC50, T98G; 24-h incubation; MTT; mutated P53
pIC50: −log10 of the molar value.

[
  {
    "compound": "COc1ccc(C2=N[C@@H](c3ccc(Cl)cc3)[C@@H](c3ccc(Cl)cc3)N2C(=O)N2CCNC(=O)C2)c(OC(C)C)c1 [Nutlin-3a, nutlin-3a, reference compound]",
    "pIC50": "< 4.30"
  }
]
